Just for reference, the nanobody polyreactivity screen of Harvey et al. (2022) is where these values come from.

# Method: yeast display, Sf9 membrane polyspecificity reagent, FACS + sequencing; frameworks hold sequencing errors
Measurement name: polyreactivity (PSR sort gate)

| Chain | Measurement name | Observed result |
| --- | --- | --- |
| QVQLVESGGGLVQAGGSLRLSCAASGRTFVQYVMGRYRQAPGKERELVAAITSSGGSTYADSVKGRFTISRDNAKNTVYLQMNSLKPEDTAVYYSAADYLDGVGDVEHDYWGQGTQVTVSS | polyreactivity (PSR sort gate) | low polyreactivity |
| QVQLVESGGGLVQAGGSLRLSCAASGRIFEEYAMGWYRQAPGKERELVAAITWGGSTYYADSVKGRFTISRDNAKNTVYLQMNSLKPEDTAVYYCAALKSYYWYTPRYRGDYWGQGTQVTVSS | polyreactivity (PSR sort gate) | low polyreactivity |

---

# Method: yeast display, Sf9 membrane polyspecificity reagent, FACS + sequencing; frameworks hold sequencing errors
Measurement name: polyreactivity (PSR sort gate)

| Chain | Measurement name | Observed result |
| --- | --- | --- |
| QVQLVESGGGLVQAGGSLRLSCADSGFTFRYNAMGWYRQAPGKERELVAAISRSGGRTYYADSVKGRFTISRDNAKNTVYLQMNSLKPEDSAVYYCAAVAARITGYGYWGQGTQVTVSS | polyreactivity (PSR sort gate) | high polyreactivity |
| QVQLVESGGGLVQAGGSLRLSCAASGIILRGYVIGWYRQAPGQERELVAAISTSGGRTYYADSVKGRFTISRDNAKNTVYLQMNSLKQEDTAVYYCAAVSSRLWLYDYWGQGTQVTVSS | polyreactivity (PSR sort gate) | high polyreactivity |
| QVQLVESGGGLVQAGGSLRLSCAASGRTFVSNAMGWYRQAPGKERELVATITVSSDSTYYADSVKGRFTISRDNAKNTVYLQMNSLKPEDTAVYYCAARNPTWSFQFDYWGQGTQVTVSS | polyreactivity (PSR sort gate) | low polyreactivity |
| QVQLVESGGGLVQAGGSLRLSCAASGITFDLYDMGWYRQAPGKERELVAAITDADSTYYADSVKGRFTISRDNAKNTVYLQMNSLKPEDTAVYYCAADFFYSVYSGHYDYWGQGTQVTVSS | polyreactivity (PSR sort gate) | low polyreactivity |
| QVQLVESGGGLVQAGGSLRLSCAASGRNFRTNAMGWYRQAPGKERELVAAITWRGGNTYYADSVKGRFTISRDNAKNTVYLQMNSLKPEDTAVYYCATAYRYYPSPYDYWGQGTQVSVSS | polyreactivity (PSR sort gate) | high polyreactivity |

---

# Method: yeast display, Sf9 membrane polyspecificity reagent, FACS + sequencing; frameworks hold sequencing errors

| Chain | polyreactivity (PSR sort gate) |
| --- | --- |
| QVQLVDSVGVLVQAGGSLRLSCAASGSIFYRNVMGWYRPAPGKERELVATISRGGTTNYADSVKGRFTISRDNAKNTVYLQMNSLKPEDTAVFYCAAPIGDVYVGIGYDSWGQGTQVTVSS | low polyreactivity |
| QGQLVESGGGLVQAGGSLRLSCAASGSIFSVNTMGWYRQAPGKERELVATIRTGDSTNYADSVKGRFTISRDNAKNTVYLQMNSLKPEDTAVYYCAADWSSLNFDYWGQGTQVTVSS | low polyreactivity |
| QVQLVESGGGLVQARGSLRLSCAASGSTFDSNAMGCYRQAPGKERELVAAITRGGSTNYADSVKGRFTISRDNAKNTVYLQMNSLNPEDTAVYYCAAASETLGSATYGSGYDYWGQGTQVTVSS | low polyreactivity |
| QVQHVESGGGLVQAGGSLRLSCAASGRTFDSYAMGWYRQAPGKERELVAAIYADSVKGRFTISRDNAKNTVYLQMNSLKPEDTAVYYCAAETYSGQTYLGEYDYWGQGTQVTVSS | low polyreactivity |
| QVQLVESGGGLVQAGGSLRLSCAASGFIFVSNAMGWYRQAPGKERELVATITNGDRTYYADSVKGRFPISRDNAKNTVYLQMNSLKPEDTAVYYCNADFRAREVFLFDSWGQGTQVTVSS | low polyreactivity |
| QVQLVESRGALVQAGGSLRLSCAATGSSFNRYAMRWYRQAPRKERELVAAISSGRTTNYADSVKGRFTISRDNAKNTVYLQMNSLKPEDTAVYYCNRKFRYSSHTNYYYWGQGTQVTVSS | high polyreactivity |
| QVQLLDSGGGLVQAGGSLRLSCDASGRTIDIYAMGWYRQAPGKERELVAAISSGGSTYYADSVKGRFTISRDNAKNTVYLQMNSLKPEDTAVYYCAVRWYDQVSRRGIGYYWGQGTQVTVSS | low polyreactivity |
| QVQLVESGGGLVQAGGSLRLSCAASGRILHANAMGWYRQAPGKERELVAAITGRGGSTYYADSVKGRFTISRDNAKITVYLQMNSLKPEDTAVYYCAARVKQAGYRMDYWVQGTQVTVSS | high polyreactivity |
| QVPLVESGGGLVQAGGSLRLSCAASGFIFPNYVMGWYRQEPGKEREFVAGISVRGGRTYYADSVKGRFTISRDNAKNTVYLQMNSLKPEDTAVYYCAADRKASAFNYWGQGTQVTVSS | high polyreactivity |
| QVQLVESGGGLVQAGGSLRLSCAASGFTFKSYAMGWYRQAPGKERELVAAISRGTSTKYADSVKGRFTISRDNAKNTVYLQMNSLKPEDTAVYYCAALFPTSDLRLRYYRYDYWGQGTQVTVSS | low polyreactivity |
| QVQLVESGGVLVQPGCILRLSCAASGRIYWYYAMGWYRQAPGKERELVAAISRSRGSTYYADSVKGRFTISRDNEKNTVYLQMNSLKPEDTAVYYCAAGARAFDDDYWGQGTQVTVSS | low polyreactivity |
